# TARGET: wild type HCV NS3/4A 1b protease enzyme (Hepatitis C virus genotype 1b)
# Construct: 10× stocks of NS3/4A protease enzyme from Bioenza (Mountain View, Calif.); purchased Bioenza (Mountain View, Calif.)
# PROTOCOL_DETAILS: biochemical
# Assay type: biochemical
# CONDITION_PARAMETERS: read-out: Inhibition, WT; WT enzyme, FRET assay
pIC50: −log10 of the molar value.
ASSAY_METRIC: pIC50

Examples with answers:
Data point: `C=CC(=O)N1CCC(NC(=O)OC(C)(C)C)(C(=O)N2C[C@H](Oc3cc(-c4ccccc4)nc4cc(OC)ccc34)C[C@H]2C(=O)N[C@]2(C(=O)NS(=O)(=O)c3ccccc3)C[C@H]2C=C)CC1` ; pIC50 = > 8.00

# pIC50 (compound: `C=CC(=O)NCC(=O)N1C[C@H](Oc2cc(-c3ccccc3)nc3cc(OC)ccc23)C[C@H]1C(=O)N[C@]1(C(=O)NS(=O)(=O)C2CC2)C[C@H]1C=C` ) is > 8.00

Further cases:
Measured pIC50 of C=C[C@@H]1C[C@]1(NC(=O)[C@@H]1C[C@@H](Oc2cc(-c3ccccc3)nc3cc(OC)ccc23)CN1C(=O)[C@H](CNC(=O)C(C)Br)NC(=O)OC(C)(C)C)C(=O)NS(=O)(=O)c1ccccc1 (some centres unmarked) : > 8.00

The reported value for `C=C[C@@H]1C[C@]1(NC(=O)[C@@H]1C[C@@H](Oc2cc(-c3ccccc3)nc3cc(OC)ccc23)CN1C(=O)[C@H](CNC(=O)/C=C/CN(C)C)NC(=O)OC(C)(C)C)C(=O)NS(=O)(=O)c1ccccc1` in terms of pIC50 is > 8.00

The reported pIC50 of the compound `C=CC(=O)N(C)CC(=O)N1C[C@H](Oc2cc(-c3ccccc3)nc3cc(OC)ccc23)C[C@H]1C(=O)N[C@]1(C(=O)NS(=O)(=O)C2CC2)C[C@H]1C=C` was 7.00 to 8.00

---

# TARGET: R155K mutant of the HCV NS3/4A 1b protease enzyme (Hepatitis C virus genotype 1b, UniProt P26663, R1181K)
# Construct: 10× stocks of NS3/4A protease enzyme from Bioenza (Mountain View, Calif.); purchased Bioenza (Mountain View, Calif.)
# PROTOCOL_DETAILS: HCV Protease FRET Assay (IC50_APP), R155K mutant
# Assay type: biochemical
# CONDITION_PARAMETERS: read-out: IC50_APP, HCV R155K; apparent IC50, R155K mutant
ASSAY_METRIC: IC50

For `C=CC(=O)NC[C@H](NC(=O)OC(C)(C)C)C(=O)N1C[C@H](Oc2nccc3ccccc23)C[C@H]1C(=O)N[C@]1(C(=O)NS(=O)(=O)C2CC2)C[C@H]1C=C` the compound record lists IC50 as 100 to 1000 nM

---

# Test system: HCV RNA replicon in cell line ET (luc-ubi-neo/ET), human Huh7 hepatoma
# PROTOCOL_DETAILS: Luciferase Assay (Example 35), replicon-derived luciferase activity
# Type: cell-based
# CONDITION_PARAMETERS: Hepatitis C virus, Huh-7; EC90; assay described in Example 35
ASSAY_METRIC: EC90

Example entries and their recorded answers appear below.
Entry `C=CC(=O)NC[C@H](NC(=O)OC(C)(C)C)C(=O)N1C[C@H](Oc2nccc3cc(OC)ccc23)C[C@H]1C(=O)N[C@]1(C(=O)NS(=O)(=O)C2CC2)C[C@H]1C=C` : EC90 on HCV RNA replicon in cell line ET (luc-ubi-neo/ET), human Huh7 hepatoma = 100 to 1000 nM

EC90 of `C=CC(=O)N(C)C[C@H](NC(=O)OC(C)(C)C)C(=O)N1C[C@H](Oc2nccc3ccccc23)C[C@H]1C(=O)N[C@]1(C(=O)NS(=O)(=O)C2CC2)C[C@H]1C=C` , assay on HCV RNA replicon in cell line ET (luc-ubi-neo/ET), human Huh7 hepatoma, is 100 to 1000 nM

Entry `C=C[C@@H]1C[C@]1(NC(=O)[C@@H]1C[C@@H](Oc2nccc3cc(OC)ccc23)CN1C(=O)[C@H](CCC(=O)C=C(C)C)NC(=O)OC(C)(C)C)C(=O)NS(=O)(=O)C1CC1` , HCV RNA replicon in cell line ET (luc-ubi-neo/ET), human Huh7 hepatoma data, EC90 value: 10 to 100 nM

// below: EC90 requested for another compound
Result for `C=CC(=O)NC[C@H](NC(=O)OC(C)(C)C)C(=O)N1C[C@H](Oc2nccc3ccccc23)C[C@H]1C(=O)N[C@]1(C(=O)NS(=O)(=O)C2CC2)C[C@H]1C=C` , tested on HCV RNA replicon in cell line ET (luc-ubi-neo/ET), human Huh7 hepatoma, EC90: 100 to 1000 nM

---

# TARGET: D168A mutant of the HCV NS3/4A 1b protease enzyme (Hepatitis C virus genotype 1b, UniProt P26663, D1194A)
# Construct: 10× stocks of NS3/4A protease enzyme from Bioenza (Mountain View, Calif.); purchased Bioenza (Mountain View, Calif.)
# PROTOCOL_DETAILS: HCV Protease FRET Assay (IC50), D168A mutant
# Type: biochemical
# CONDITION_PARAMETERS: read-out: Inhibition, HCV D168A; D168A enzyme, FRET assay
In this section, each of the compounds is paired with its reported IC50.

As a guide, the following entries are already answered.
Field IC50 (entry `C=CC(=O)N1C[C@H](Oc2cc(-c3ccccc3)nc3cc(OC)ccc23)C[C@H]1C(=O)N[C@]1(C(=O)NS(=O)(=O)C2CC2)C[C@H]1C=C` ) reads 100 to 1000 nM

Entry `C=C[C@@H]1C[C@]1(NC(=O)[C@@H]1C[C@@H](Oc2cc(-c3ccccc3)nc3cc(OC)ccc23)CN1C(=O)C1(NC(=O)OC(C)(C)C)CCN(C(=O)CCl)CC1)C(=O)NS(=O)(=O)c1ccccc1` — recorded IC50 = 10 to 100 nM

Reported IC50 ( `C=CC(=O)N(C)CC(=O)N1C[C@H](Oc2cc(-c3ccccc3)nc3cc(OC)ccc23)C[C@H]1C(=O)N[C@]1(C(=O)NS(=O)(=O)C2CC2)C[C@H]1C=C` ) = 1000 to 10000 nM

Entry `C=C[C@@H]1C[C@]1(NC(=O)[C@@H]1C[C@@H](Oc2cc(-c3ccccc3)nc3cc(OC)ccc23)CN1C(=O)[C@H](Cn1sc2ccccc2c1=O)NC(=O)OC(C)(C)C)C(=O)NS(=O)(=O)c1ccccc1` — recorded IC50 = 10 to 100 nM

Further cases:
Measured IC50 of `C=CC(=O)N1CCC(NC(=O)OC(C)(C)C)(C(=O)N2C[C@H](Oc3cc(-c4ccccc4)nc4cc(OC)ccc34)C[C@H]2C(=O)N[C@]2(C(=O)NS(=O)(=O)c3ccccc3)C[C@H]2C=C)CC1` : 100 to 1000 nM

// sample `C=C[C@@H]1C[C@]1(NC(=O)[C@@H]1C[C@@H](Oc2cc(-c3ccccc3)nc3cc(OC)ccc23)CN1C(=O)[C@H](CN(C)C(=O)C(=C)C)NC(=O)OC(C)(C)C)C(=O)NS(=O)(=O)c1ccccc1` , its IC50 was 1000 to 10000 nM

---

List of pIC50 values.
# TARGET: A156T mutant of the HCV NS3/4A 1b protease enzyme (Hepatitis C virus genotype 1b, UniProt P26663, A1182T)
# Construct: 10× stocks of NS3/4A protease enzyme from Bioenza (Mountain View, Calif.); purchased Bioenza (Mountain View, Calif.)
# PROTOCOL_DETAILS: HCV Protease FRET Assay (IC50_APP), A156T mutant
# Type: biochemical
# CONDITION_PARAMETERS: apparent IC50, A156T mutant; read-out: IC50_APP, HCV A156T
pIC50: −log10 of the molar value.

Form: compound = `C=C[C@@H]1C[C@]1(NC(=O)[C@@H]1C[C@@H](Oc2nccc3cc(OC)ccc23)CN1C(=O)[C@H](CCC(=O)C=C(C)C)NC(=O)OC(C)(C)C)C(=O)NS(=O)(=O)C1CC1` ; pIC50 = 7.00 to 8.00

Kindly note the recorded pIC50 for `C=C[C@@H]1C[C@]1(NC(=O)[C@@H]1C[C@@H](Oc2cc(-c3ccccc3)nc3cc(OC)ccc23)CN1C(=O)[C@H](CN(C)C(=O)/C=C/CN(C)C)NC(=O)OC(C)(C)C)C(=O)NS(=O)(=O)c1ccccc1` , which is 5.00 to 6.00

Just so you know, measured pIC50 for `C=C[C@@H]1C[C@]1(NC(=O)[C@@H]1C[C@@H](Oc2nccc3ccc(Br)cc23)CN1C(=O)[C@H](CCC(=O)C=C(C)C)NC(=O)OC(C)(C)C)C(=O)NS(=O)(=O)C1CC1` came out at 6.00 to 7.00

---

# TARGET: A156T mutant of the HCV NS3/4A 1b protease enzyme (Hepatitis C virus genotype 1b, UniProt P26663, A1182T)
# Construct: 10× stocks of NS3/4A protease enzyme from Bioenza (Mountain View, Calif.); purchased Bioenza (Mountain View, Calif.)
# PROTOCOL_DETAILS: HCV Protease FRET Assay (IC50_APP), A156T mutant
# Format: biochemical
# CONDITION_PARAMETERS: apparent IC50, A156T mutant; read-out: IC50_APP, HCV A156T
Below, each entry is listed with its recorded IC50.

Example entries and their recorded answers appear below.
IC50 reported for this compound `C=CC(=O)NC[C@H](NC(=O)OC(C)(C)C)C(=O)N1C[C@H](Oc2cc(-c3ccccc3)nc3cc(OC)ccc23)C[C@H]1C(=O)N[C@]1(C(=O)NS(=O)(=O)C2CC2)C[C@H]1C=C` : 0.1 to 1 µM

Given item `C=C[C@@H]1C[C@]1(NC(=O)[C@@H]1C[C@@H](Oc2cc(-c3ccccc3)nc3cc(OC)ccc23)CN1C(=O)[C@H](CCC(=O)C=C(C)C)NC(=O)OC(C)(C)C)C(=O)NS(=O)(=O)C1CC1` , the value recorded as its IC50 is 0.1 to 1 µM

Note to self: IC50 recorded for C=C[C@@H]1C[C@]1(NC(=O)[C@@H]1C[C@@H](Oc2cc(-c3ccccc3)nc3cc(OC)ccc23)CN1C(=O)C(CN(C)C(=O)C(=C)C(F)(F)F)NC(=O)OC(C)(C)C)C(=O)NS(=O)(=O)c1ccccc1 (stereo in doubt) was 0.01 to 0.1 µM

Could you now consider this next compound?
Summary for this compound, `C=CC(=O)N(C)CC[C@H](NC(=O)OC1CCCC1)C(=O)N1C[C@H](Oc2cc(-c3ccccc3)nc3cc(OC)ccc23)C[C@H]1C(=O)N[C@]1(C(=O)NS(=O)(=O)C2CC2)C[C@H]1C=C` : IC50 is 0.01 to 0.1 µM
